Ref: patent US11661426B2

Parameter IC50, tested on ALK2 (Homo sapiens (Human), UniProt Q04771), listed per item.
Sequence (Q04771 21-509): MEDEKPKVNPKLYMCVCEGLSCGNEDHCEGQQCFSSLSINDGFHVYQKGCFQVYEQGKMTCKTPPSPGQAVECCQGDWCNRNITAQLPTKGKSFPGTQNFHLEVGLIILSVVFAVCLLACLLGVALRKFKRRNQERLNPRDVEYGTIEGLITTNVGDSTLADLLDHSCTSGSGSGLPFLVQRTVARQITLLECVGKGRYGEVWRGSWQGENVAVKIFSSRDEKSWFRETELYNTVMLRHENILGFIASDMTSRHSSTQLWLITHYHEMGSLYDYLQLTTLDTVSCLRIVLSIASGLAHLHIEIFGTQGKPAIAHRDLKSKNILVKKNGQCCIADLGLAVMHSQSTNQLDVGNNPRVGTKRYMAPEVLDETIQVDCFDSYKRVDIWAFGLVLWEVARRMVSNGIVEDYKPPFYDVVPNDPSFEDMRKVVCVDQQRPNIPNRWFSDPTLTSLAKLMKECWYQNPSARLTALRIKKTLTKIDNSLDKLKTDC

For this molecule ( COc1cc(-n2cnc(Nc3nc(N4CCN(CCO)CC4)nc4sccc34)c2)cc(OC)c1OC [Compound 422a] ), measured IC50 is < 100 nM

For every item in the list below, what is its measured IC50?
1. COc1cc(-n2cnc(Nc3nc(N4CCC[C@H]4C(N)=O)nc4ncn(C)c34)c2)cc(OC)c1OC [Compound 390b]
2. COc1cc(-n2cnc(Nc3nc(N4CCC[C@H]4C(N)=O)nc4cc(C#N)ccc34)c2)cc(OC)c1OC [Compound 345c]

> 1000 nM
< 100 nM

Record OC[C@@H]1CCCN1c1nc(Nc2cn(-c3cn(C4CCCCC4)cn3)cn2)c2cccn2n1 [Compound 452d] . Reported IC50: 100 to 1000 nM

----------
molecular target: ALK2 (Homo sapiens (Human))
Give IC50 for every item shown.

The examples below pair each entry with its known result.
Form: molecule = COc1cc(-n2cnc(Nc3nc(N4CCC[C@H]4CO)c4cccn4n3)c2)ccc1C#N [Compound 258d] ; IC50 = > 1000 nM

IC50 measured on COc1cc(-n2cnc(Nc3nc(N4CCC[C@H]4CO)nc4c3c(C)nn4C3CCCCO3)c2)cc(OC)c1OC (stereo partly shown) [Compound 400c] = 100 to 1000 nM

Report IC50 for each item below.
1. COc1cc(-n2cnc(Nc3nc(N4CCC[C@H]4CO)c4c(C)nn([C@H]5C[C@@H](O)C5)c4n3)c2)cc(OC)c1OC [Compound 466c]
2. Cc1cc2c(Nc3cn(-c4ccccc4)cn3)nc(N3CCC[C@H]3CO)nc2s1 [Compound 22c]
3. COc1ccc(-n2cnc(Nc3nc(N4CCC[C@H]4CO)nn4cccc34)c2)cc1OC [Compound 73c]
4. COc1cc(-n2cnc(Nc3nc(N4CCC[C@H]4CO)c4ccn(S(=O)(=O)c5ccc(C)cc5)c4n3)c2)cc(OC)c1OC [Compound 159b]
5. COc1cc(-n2cnc(Nc3nc(N4CCC[C@H]4CO)c4ccc(C5=CCNCC5)cc4n3)c2)cc(OC)c1OC [Compound 385c]

["< 100 nM", "< 100 nM", "< 100 nM", "> 1000 nM", "< 100 nM"]

----------
For ALK2 (Homo sapiens (Human)), measured IC50 is reported for the entries below.

Below: 6 compounds and their reported IC50.
IC50 for COc1cc(-n2cnc(Nc3nc(N4CCC[C@H]4C(N)=O)nc4c3cnn4C)c2)cc(OC)c1OC [Compound 337a] is < 100 nM

// sample COc1cc(-n2cnc(Nc3nc4c(c(N5CCC[C@@H]5CO)n3)CN(C(=O)OC(C)(C)C)C4)c2)cc(OC)c1OC [Compound 366b] , its IC50 was < 100 nM

IC50 measured on COc1cc(-n2cnc(Nc3nc(N4CCC[C@H]4CO)nc4c3ccn4CC3CCCCC3)c2)cc(OC)c1OC [Compound 462c] = < 100 nM

Item: COc1cc(-n2cnc(Nc3nc(N4CCC[C@H]4CO)nn4c(CN5CCOCC5)ccc34)c2)cc(OC)c1OC [Compound 111b] | IC50: < 100 nM

Recorded result, COc1cc(-n2cnc(Nc3nc(N4CCC[C@H]4C(N)=O)nc4[nH]cc(C#N)c34)c2)cc(OC)c1OC [Compound 395d] , IC50: > 1000 nM

# compound CC(=O)c1cc(-n2cnc(Nc3nc(N4CCC[C@H]4CO)nn4cccc34)c2)ccc1O [Compound 123c] ; its IC50 = < 100 nM

Next:
Form field IC50, entry COc1cc(-n2cnc(Nc3nc4c(c(N5CCC[C@@H]5CO)n3)CCC4)c2)cc(OC)c1OC [Compound 272b] : < 100 nM
